# System: Saccharomyces cerevisiae
# Assay Remarks: DNA damaging activity against rad 52 DNA repair gene/topoisomerase 1 deficient Saccharomyces cerevisiae mutant assessed as drug level required to produce 12 mm zone of inhibition well after 48 hrs
# Format: functional
Parameter Activity: see the listing below.
Endpoint Label: Activity (µg/mL)

- O=C1c2ccc(O)cc2-c2c3c(cc4ccnc1c24)OCO3: 72
- COc1ccc2c(c1)-c1c3c(cc4ccnc(c14)C2=O)OCO3: 113
- COc1cc2ccnc3c2c(c1OC)-c1ccccc1C3=O [LYSICAMINE]: 390

###

# System: Saccharomyces cerevisiae
# Assay Remarks: DNA damaging activity against rad 52 DNA repair gene/topoisomerase 1 deficient Saccharomyces cerevisiae mutant assessed as drug level required to produce 12 mm zone of inhibition well after 48 hrs
# Type: functional
Endpoint Label: Activity

- COc1cc2c(cc1OC)-c1c(OC)c(OC)cc3ccnc(c13)C2=O [OXOGLAUCINE]: >500 µg/mL
- COc1c(OC)c2c3c(nccc3c1OC)C(=O)c1ccccc1-2 [HOMOMOSCHATOLINE]: >500 µg/mL
- COc1c(OC)c2c3c(nccc3c1OC)C(=O)c1cc3c(cc1-2)OCO3 [OXOPHOEBINE]: 2.6 µg/mL
- COC1=C(N)C(=O)c2nc(-c3nc(C(=O)O)c(C)c(-c4ccc(OC)c(OC)c4O)c3N)ccc2C1=O [STREPTONIGRIN]: <0.4 µg/mL

Each recorded value in this set is attributed to ChEMBL document CHEMBL1148035.
